Target Or System: Caspase-3 (Homo sapiens) (UniProt P42574)
Sequence (P42574 28-227 limits assumed): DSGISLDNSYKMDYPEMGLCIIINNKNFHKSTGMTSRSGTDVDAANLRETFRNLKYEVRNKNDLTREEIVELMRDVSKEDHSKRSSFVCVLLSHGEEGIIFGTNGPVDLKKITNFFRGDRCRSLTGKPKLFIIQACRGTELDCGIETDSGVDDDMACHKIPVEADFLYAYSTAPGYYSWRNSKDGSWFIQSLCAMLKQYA
Procedure Details: caspase-3 inhibitors as off-family protease, SAR follow-up, selectivity assay for SENP protease inhibitor project, biochemical, luminescence, set 2 (AID 588599)
Condition Details: recombinant caspase-3, Z-DEVD-aminoluciferin luminescence, 60 min
Catalogue of compounds with associated IC50

Reference set (3 entries):
Structure: Fc1ccc(/C=C/c2noc(-c3ccccc3I)n2)cc1
Target Or System: Caspase-3 (Homo sapiens) (UniProt P42574)
IC50: 23.9 µM

Structure: O=C(Nc1nc2ccccc2s1)c1cc2ccccc2s1
Target Or System: Caspase-3 (Homo sapiens) (UniProt P42574)
IC50: 0.515 µM

Structure: Cc1cccc(-c2noc(/C=C/c3ccccc3)n2)c1
Target Or System: Caspase-3 (Homo sapiens) (UniProt P42574)
IC50: 10.6 µM

Next compound, please.
Sample CCCCc1ccc2nc(NC(=O)c3sccc3Cl)sc2c1 — what was its IC50?
1.11 µM
